- Tested on: MV-4-11 (human, Acute Myeloid Leukemia cell line) cells
- Test Summary: Cell growth inhibition assay, GI50 of MV-4-11
- Assay type: cell-based
- Condition Parameters: Homo sapiens, MV4-11, 72 h, MV-4-11 cells
// boundary case: GI50 equal to 9 nM maps to f; strictly smaller maps to t

For orientation, consider the following solved cases.
Please indicate whether the reported GI50 of C=CCN1CC(=O)N2[C@@H](Cc3ccc(O)cc3)C(=O)N(Cc3cccc4c(C(=O)N5CCN(Cc6ccc(OC)cc6)CC5)cn(C)c34)C[C@@H]2N1C(=O)NCc1ccccc1 [Compound E-36] is strictly below 9 nM.
t

Here's an entry: C=CCN1CC(=O)N2[C@@H](Cc3ccc(O)cc3)C(=O)N(Cc3cccc4c(-c5ccc(NC(=O)NCc6ccccc6)nc5)cn(C)c34)C[C@@H]2N1C(=O)NCc1ccccc1 [Compound D-93] . Is its GI50 below 9 nM?
f

Field: below-cutoff. Rule: recorded GI50 strictly less than 9 nM. Subject: C=CCN1CC(=O)N2C(CN(Cc3cccc4c(C(=O)Nc5ccc(N(C)C)cc5)cn(C)c34)C(=O)[C@@H]2Cc2ccc(O)cc2)N1C(=O)NCc1ccccc1 (some centres unmarked) [Compound G-14]
t

Hi there! Is GI50 for C=CCN1CC(=O)N2[C@@H](Cc3ccc(O)cc3)C(=O)N(Cc3cccc4c(-c5ccc(C(=O)N6CCSCC6)cc5)cn(C)c34)C[C@@H]2N1C(=O)NCc1ccccc1 [Compound D-5] below 9 nM, do you know?
t

Report whether reported GI50 is lower than 9 nM (strictly) for C=CCN1CC(=O)N2[C@@H](Cc3ccc(O)cc3)C(=O)N(Cc3cccc4c(-c5ccc(C(=O)NNC(C)C)cc5)cn(C)c34)C[C@@H]2N1C(=O)NCc1ccccc1 [Compound D-35]
f

---
Quick check: does C=CCN1CC(=O)N2[C@@H](Cc3ccc(O)cc3)C(=O)N(Cc3cccc4c(C(=O)Nc5ccc(N(C)CCO)nc5)cn(C)c34)C[C@@H]2N1C(=O)NCc1ccccc1 [Compound G-18] have GI50 under 9 nM?
t

Find out if reported GI50 for C=CCN1CC(=O)N2[C@@H](Cc3ccc(O)cc3)C(=O)N(Cc3cccc4c(C(=O)N(C)Cc5cccnc5)cn(C)c34)C[C@@H]2N1C(=O)NCc1ccccc1 [Compound F-41] is less than 9 nM
f

I'd appreciate it if you could check whether C=CCN1CC(=O)N2[C@@H](Cc3ccc(O)cc3)C(=O)N(Cc3cccc4c(C(=O)NC5CCN(C(=O)c6ccc(N(C)C)cc6)CC5)cn(C)c34)C[C@@H]2N1C(=O)NCc1ccccc1 [Compound F-66] has GI50 smaller than 9 nM.
f

Lab log: compare recorded GI50 with 9 nM; is it strictly lower for C=CCN1CC(=O)N2[C@@H](Cc3ccc(O)cc3)C(=O)N(Cc3cccc4c(-c5cccc(C(=O)NC6CC6)c5)cn(C)c34)C[C@@H]2N1C(=O)NCc1ccccc1 [Compound D-29] ?
t

Does the reported GI50 of the following compound sit strictly below 9 nM? C=CCN1CC(=O)N2[C@@H](Cc3ccc(O)cc3)C(=O)N(Cc3cccc4c(-c5ccc(C(=O)Nc6ccc(N7CCN(C(C)=O)CC7)cc6)cc5)cn(C)c34)C[C@@H]2N1C(=O)NCc1ccccc1 [Compound D-10]
t

Please let me know if C=CCN1CC(=O)N2[C@@H](Cc3ccc(O)cc3)C(=O)N(Cc3cccc4c(-c5ccc(NC(=O)c6ccc(N)cc6)cc5)cn(C)c34)C[C@@H]2N1C(=O)NCc1ccccc1 [Compound D-50] shows GI50 below 9 nM.
t

Is the reported GI50 for C=CCN1CC(=O)N2C(CN(Cc3cccc4c(C(=O)Nc5ccc(N6CCN(C)CC6)cc5)cn(C)c34)C(=O)[C@@H]2Cc2ccc(O)cc2)N1C(=O)NCc1ccccc1 (some centres unmarked) [Compound G-40] strictly below 9 nM?
t

# check: GI50 < 9 nM for C=CCN1CC(=O)N2C(CN(Cc3cccc4c(-c5ccc(S(C)(=O)=O)cc5)cn(C)c34)C(=O)[C@@H]2Cc2ccc(O)cc2)N1C(=O)NCc1ccccc1 (some centres unmarked) [Compound H-3]
t

GI50 under 9 nM? Item: C=CCN1CC(=O)N2[C@@H](Cc3ccc(O)cc3)C(=O)N(Cc3cccc4c(-c5ccc(NC(=O)C6CCN(C(C)=O)CC6)cc5)cn(C)c34)C[C@@H]2N1C(=O)NCc1ccccc1 [Compound D-61]
t

State whether 9 nM exceeds GI50 recorded for C=CCN1CC(=O)N2[C@@H](Cc3ccc(O)cc3)C(=O)N(Cc3cccc4c(C(=O)Nc5ccc(N6CCC(N(C)C)CC6)nc5)cn(C)c34)C[C@@H]2N1C(=O)NCc1ccccc1 [Compound G-45] .
t

Is 9 nM strictly greater than the compound's reported GI50? compound: C=CCN1CC(=O)N2[C@@H](Cc3ccc(O)cc3)C(=O)N(Cc3cccc4c(C(=O)N(C)CCCO)cn(C)c34)C[C@@H]2N1C(=O)NCc1ccccc1 [Compound F-5]
f
